Measured GI50 accompanies every entry in the list below.
System: A549
Experiment: NCI tumour cell line growth inhibition, 48 h
Calls of active or inactive are those of the source. Cut-off read from the data, not from the text of the source: active = GI50 up to about 1.1 µM and inactive = higher.

The following compounds have reported results that may help.
[
  {
    "Compound": "COc1ccc(NC/C=C/C(=C/COC(C)=O)OC(C)=O)cc1",
    "GI50": "15.3 µM (inactive)"
  },
  {
    "Compound": "N/N=C1\\C(OC(=O)Nc2cccc(Cl)c2)=Nc2ccccc21",
    "GI50": "5.92 µM (inactive)"
  },
  {
    "Compound": "CC1C2CCC3C(O)C2(CC(O)C2(O)C1CC(O)C2(C)C)CC3(C)O (stereo not given)",
    "GI50": "> 100 µM (inactive)"
  },
  {
    "Compound": "COc1cc(OC)c2c(c1OC)OCC(Cc1ccc(O)cc1)C2=O (stereo not given)",
    "GI50": "> 25 µM (inactive)"
  }
]

The record that follows has no GI50 shown yet.
Please give the measured GI50 for this compound: Cc1cc(C)c(/N=N/c2c(O)c(S(=O)(=O)O)cc3cc(S(=O)(=O)O)ccc23)cc1C > 100 µM (inactive)

====

Test system: MCF7
Experiment: NCI tumour cell line growth inhibition, 48 h
Active and inactive are the calls of the source. Rule as the data show it: active = GI50 up to about 1.1 µM and inactive = higher.
Give your call using only these classes: Yes (active), No (inactive)

Completed entries (count: 2):
[
  {
    "Compound": "O=C1C(Cl)=C(NCCO)C(=O)c2c(O)ccc(O)c21",
    "Measured Target": "MCF7",
    "Assigned Class": "No"
  },
  {
    "Compound": "O=C(Nc1ccccc1F)c1c(O)nc2sccn2c1=O",
    "Measured Target": "MCF7",
    "Assigned Class": "No"
  }
]

Record request — test call for CC1(C)OP(=O)(c2ccccc2)C=C1Sc1ccc([N+](=O)[O-])cc1[N+](=O)[O-] (stereo not given) No

Record request — test call for CC(=O)NC1CCC(NC(=O)OC(C)(C)C)C(NC(=O)OC(C)(C)C)C1 (stereo not given) No

Record request — test call for Cc1ccc(/N=N/c2c(O)ccc3cc(S(=O)(=O)O)cc(S(=O)(=O)O)c23)cc1 No

====

Test system: SK-OV-3
Assay: NCI tumour cell line growth inhibition, 48 h
Calls of active or inactive are those of the source. No stated cut-off is given here; in the data, active = GI50 up to about 1.1 µM and inactive = higher.
Property Measured: GI50

The following compounds have reported results that may help.
[
  {
    "Compound": "c1ccc2c(OCC3CO3)ccc(OCC3CO3)c2c1 (configuration not stated)",
    "GI50": "12.6 µM (inactive)"
  },
  {
    "Compound": "O=C1CCC(=O)c2sccc2N1",
    "GI50": "> 100 µM (inactive)"
  },
  {
    "Compound": "COc1ccc(NC/C=C/C(=C/COC(C)=O)OC(C)=O)cc1",
    "GI50": "14.9 µM (inactive)"
  },
  {
    "Compound": "CN1CCc2c(sc3ncn(C)c(=N)c23)C1",
    "GI50": "> 100 µM (inactive)"
  },
  {
    "Compound": "COc1ccc(S(=O)(=O)NC(CCC(=O)NC(N)=O)C(=O)NC(N)=O)cc1 (configuration not stated)",
    "GI50": "> 100 µM (inactive)"
  },
  {
    "Compound": "COc1ccc2c(c1)C=C(C(C)(C)C)NS2(=O)=O",
    "GI50": "> 100 µM (inactive)"
  },
  {
    "Compound": "Nc1ncnc2c1nnn2C1C=C(CO)C(O)C1O (configuration not stated)",
    "GI50": "> 100 µM (inactive)"
  },
  {
    "Compound": "CSc1s[s+]c(SC)c1[O-]",
    "GI50": "> 100 µM (inactive)"
  },
  {
    "Compound": "CCc1nc(Cl)c(Cl)c(Cl)n1",
    "GI50": "> 100 µM (inactive)"
  },
  {
    "Compound": "O=C(Nn1cnn2c(=O)c3ccccc3nc2c1=O)c1ccccc1",
    "GI50": "> 100 µM (inactive)"
  }
]

Please give the measured GI50 for this compound: C[N+](C)(C)CC(=O)N/N=C/c1oc(-c2cccc([N+](=O)[O-])c2)c(-c2cccc([N+](=O)[O-])c2)c1[N+](=O)[O-] > 100 µM (inactive)

Please give the measured GI50 for this compound: CN(C)c1ccc(/N=N/c2ccc3[nH]cnc3c2)cc1 > 10 µM (inactive)

====

Test system: KM-20L2
Assay: NCI tumour cell line growth inhibition, 48 h
The source made the active and inactive calls. No stated cut-off is given here; in the data, active = GI50 up to about 1.1 µM and inactive = higher.
Property Measured: GI50

[
  {
    "Molecule": "COc1cccc(NC(=O)C(=O)C(C(C)=O)c2nc3ccc(Cl)cc3nc2O)c1 (stereo unspecified)",
    "Measured Target": "KM-20L2",
    "Result": "> 100 µM (inactive)"
  },
  {
    "Molecule": "CC(=O)OCC1OC(n2cc(F)c(=O)[nH]c2=O)C(NC(=O)N(CCCl)N=O)C(OC(C)=O)C1OC(C)=O (stereo unspecified)",
    "Measured Target": "KM-20L2",
    "Result": "> 100 µM (inactive)"
  },
  {
    "Molecule": "CC(=O)C1C(c2ccc(N(C)C)cc2)c2cc3c(cc2OC1(C)O)OCO3 (stereo unspecified)",
    "Measured Target": "KM-20L2",
    "Result": "6.85 µM (inactive)"
  },
  {
    "Molecule": "CCP(C)(C)=O",
    "Measured Target": "KM-20L2",
    "Result": "> 100 µM (inactive)"
  },
  {
    "Molecule": "COc1c(C)c2c(c(C)c1Cl)Oc1c(C=O)c(O)c(Cl)c(C)c1C(=O)O2",
    "Measured Target": "KM-20L2",
    "Result": "30.5 µM (inactive)"
  }
]

The record that follows has no GI50 shown yet.
Lab note: need GI50 with KM-20L2 for entry O=C1Nc2ccccc2C12CCCC2 , please look it up. > 100 µM (inactive)

====

Test system: HOP-62
Assay: NCI tumour cell line growth inhibition, 48 h
Activity calls are given as the source filed them. No stated cut-off is given here; in the data, active = GI50 up to about 1.1 µM and inactive = higher. Square brackets hold non-standard residues; d marks the D form. Peptide text beside a SMILES is read from it. * marks the point of attachment. AllylGly = C=CC[CH](N)C(=O)O; Boc = CC(C)(C)OC(=O)*; OtBu = CC(C)(C)O*
Give your call using only these classes: TRUE for active, FALSE for inactive

[
  {
    "Compound": "C[N+](C)(C)CC(=O)N/N=C/c1oc(-c2cccc([N+](=O)[O-])c2)c(-c2cccc([N+](=O)[O-])c2)c1[N+](=O)[O-]",
    "Assigned Class": "FALSE"
  },
  {
    "Compound": "C[C@@H]1C[C@H]2OC(=O)[C@@]3(C)CCC[C@@](C)([C@@H]23)[C@@]1(O)CCc1ccoc1",
    "Assigned Class": "FALSE"
  },
  {
    "Compound": "COC(=O)Cc1cc(OC)c(OC)cc1Br",
    "Assigned Class": "FALSE"
  },
  {
    "Compound": "CCCn1c(SCC)c2cc3cc4ccccc4cc3cc2c1-c1nc(F)nc(F)n1",
    "Assigned Class": "FALSE"
  },
  {
    "Compound": "CCN(CC)Cc1cc(Nc2c3ccccc3nc3c4ccccc4n(C)c23)cc(CN(CC)CC)c1O",
    "Assigned Class": "FALSE"
  },
  {
    "Compound": "Cc1sc2nc3n(c(=O)c2c1C)N=C(c1ccc([N+](=O)[O-])cc1)CS3",
    "Assigned Class": "FALSE"
  },
  {
    "Compound": "CC(=O)N1CCc2c([nH]c3ccc(Br)cc23)C1c1ccccc1 (stereo not drawn)",
    "Assigned Class": "FALSE"
  },
  {
    "Compound": "COC(=O)C1=C(OC(=O)/C=C/c2ccccc2)C(C(=O)OC)[C@@]2(O)[C@@H](C(=O)OC)[C@H](C)C[C@@H]1[C@@H]2C(=O)OC (stereo partly drawn)",
    "Assigned Class": "FALSE"
  },
  {
    "Compound": "CN1CCc2c(sc3ncn(C)c(=N)c23)C1",
    "Assigned Class": "FALSE"
  },
  {
    "Compound": "O=C(OC1C(Oc2ccccc2COC(=O)C2(O)C=CCCC2=O)OC(CO)C(O)C1O)c1ccccc1 (stereo not drawn)",
    "Assigned Class": "FALSE"
  }
]

Record request — test call for O=C(Nc1ccc(Cl)cc1Cl)OC(Cn1cncn1)c1ccc(Cl)cc1Cl (stereo not drawn) FALSE

Record request — test call for O=C(/C=C1\C[C@H]2C=Nc3ccccc3C(=O)N2C1)NCCCCNC(=O)/C=C1\C[C@H]2C=Nc3ccccc3C(=O)N2C1 FALSE

Record request — test call for O=C1OC(OCC#CCOC2OC(=O)C(Cl)=C2Cl)C(Cl)=C1Cl (stereo not drawn) FALSE

Record request — test call for CC(=O)Nc1cc2c(s1)CCC1CC(=O)NN=C21 (stereo not drawn) FALSE

Record request — test call for O=C(C(=O)c1ccc(Cc2ccc(C(=O)C(=O)c3ccccc3)cc2)cc1)c1ccccc1 FALSE

Record request — test call for COc1cc(/C=C2/Oc3c(OC)cccc3C2=O)ccc1O FALSE

Record request — test call for COc1cc(C2c3cc4c(cc3[C@@H](Nc3ccc(C(=O)O)cc3)C3COC(=O)[C@H]23)OCO4)cc(OC)c1O (stereo partly drawn) FALSE

Record request — test call for COc1cc(C2C(Cl)C(=O)N2NC(=O)c2ccc(N)cc2)cc(Br)c1O (stereo not drawn) FALSE

Record request — test call for Cc1nn(C(=O)c2ccc(Cl)cc2)c2c1C(c1ccccc1)SC(=N)N2 (stereo not drawn) FALSE

Record request — test call for C=CCC(NC(=O)C(CC(=O)OC(C)(C)C)NC(=O)OC(C)(C)C)C(=O)OC (stereo not drawn) (Boc-Asp(OtBu)-[AllylGly]-OMe; configuration not given here) FALSE

Record request — test call for CCOC(=O)C1=NC(c2ccccc2)(c2ccccc2)OC1=C(Cl)Cl FALSE

Record request — test call for CC1=Nc2ccccc2OC(C)=C1/N=N/c1ccc2[nH]c(C)nc2c1 FALSE

Record request — test call for COc1ccc2c(c1OC)CN1CCc3cc4c(cc3C1C2)OCO4 (stereo not drawn) [TETRAHYDROBERBERINE] FALSE

Record request — test call for O=C(/C=C\c1ccc(Cl)c(Cl)c1)c1ccc(Cl)cc1Cl FALSE

Record request — test call for CSc1nc(CO)c(CO)n1C FALSE

Reference source: ChEMBL document CHEMBL1201862
